Values were extracted from paper PMC5333395.

- Tested system: UniProtKB O15054
- Sequence (O15054 whole entry): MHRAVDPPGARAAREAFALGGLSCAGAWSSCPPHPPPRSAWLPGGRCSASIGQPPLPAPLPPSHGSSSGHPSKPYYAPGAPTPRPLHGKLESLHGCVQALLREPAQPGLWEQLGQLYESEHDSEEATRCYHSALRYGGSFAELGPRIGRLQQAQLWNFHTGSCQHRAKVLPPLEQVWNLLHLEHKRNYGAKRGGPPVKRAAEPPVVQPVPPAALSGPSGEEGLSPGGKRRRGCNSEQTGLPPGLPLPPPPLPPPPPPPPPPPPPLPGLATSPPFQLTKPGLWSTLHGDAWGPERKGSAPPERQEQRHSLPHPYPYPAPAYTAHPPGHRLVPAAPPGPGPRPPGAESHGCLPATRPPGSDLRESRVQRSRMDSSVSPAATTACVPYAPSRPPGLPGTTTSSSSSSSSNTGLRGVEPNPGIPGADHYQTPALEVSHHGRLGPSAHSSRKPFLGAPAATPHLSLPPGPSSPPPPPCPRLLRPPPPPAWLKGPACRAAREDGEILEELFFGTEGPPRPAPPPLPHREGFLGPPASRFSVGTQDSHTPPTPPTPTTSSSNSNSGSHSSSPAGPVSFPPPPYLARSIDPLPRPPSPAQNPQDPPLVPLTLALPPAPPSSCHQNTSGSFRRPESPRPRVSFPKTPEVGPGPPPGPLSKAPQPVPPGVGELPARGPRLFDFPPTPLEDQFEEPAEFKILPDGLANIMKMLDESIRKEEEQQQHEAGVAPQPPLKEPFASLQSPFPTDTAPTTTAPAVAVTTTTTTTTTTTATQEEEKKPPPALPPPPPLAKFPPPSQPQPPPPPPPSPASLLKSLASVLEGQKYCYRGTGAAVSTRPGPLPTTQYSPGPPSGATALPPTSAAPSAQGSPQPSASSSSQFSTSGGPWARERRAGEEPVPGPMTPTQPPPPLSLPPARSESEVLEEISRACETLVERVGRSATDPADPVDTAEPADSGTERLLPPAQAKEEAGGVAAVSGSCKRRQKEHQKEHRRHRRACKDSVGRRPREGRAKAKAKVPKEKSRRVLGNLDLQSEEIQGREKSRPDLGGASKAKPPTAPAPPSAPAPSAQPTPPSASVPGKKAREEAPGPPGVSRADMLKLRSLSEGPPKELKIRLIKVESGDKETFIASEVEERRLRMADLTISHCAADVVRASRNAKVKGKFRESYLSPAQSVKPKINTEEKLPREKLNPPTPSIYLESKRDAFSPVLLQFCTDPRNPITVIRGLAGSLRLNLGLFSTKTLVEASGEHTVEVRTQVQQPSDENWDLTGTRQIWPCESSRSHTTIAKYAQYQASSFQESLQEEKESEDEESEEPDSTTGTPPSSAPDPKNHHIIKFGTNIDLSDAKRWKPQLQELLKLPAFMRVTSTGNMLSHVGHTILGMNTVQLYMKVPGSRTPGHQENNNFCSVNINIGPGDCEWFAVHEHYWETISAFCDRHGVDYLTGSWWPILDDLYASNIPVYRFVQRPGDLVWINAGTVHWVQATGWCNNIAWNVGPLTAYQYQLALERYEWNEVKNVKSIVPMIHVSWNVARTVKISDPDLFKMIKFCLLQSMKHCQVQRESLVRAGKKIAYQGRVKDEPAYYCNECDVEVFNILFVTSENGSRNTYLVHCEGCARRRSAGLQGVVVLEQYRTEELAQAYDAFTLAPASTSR
- Measurement notes: High-content immunofluorescence (IF) assay, overexpressed full-length FLAG-tagged KDM in HeLa cells
- Test settings: HeLa cells overexpressing WT KDM6B, H3K27me3 mark, 24 h; read-out: KDM6B, in cells, EC50 by IF assay (head: IC50)
Observed property: EC50

1) CCN(CCN(C)C)C(=O)CNCc1cncc(C(N)=O)c1 : > 100 µM

---

- Tested system: KDM5B (Homo sapiens, UniProt Q9UGL1)
- Sequence (Q9UGL1 whole entry): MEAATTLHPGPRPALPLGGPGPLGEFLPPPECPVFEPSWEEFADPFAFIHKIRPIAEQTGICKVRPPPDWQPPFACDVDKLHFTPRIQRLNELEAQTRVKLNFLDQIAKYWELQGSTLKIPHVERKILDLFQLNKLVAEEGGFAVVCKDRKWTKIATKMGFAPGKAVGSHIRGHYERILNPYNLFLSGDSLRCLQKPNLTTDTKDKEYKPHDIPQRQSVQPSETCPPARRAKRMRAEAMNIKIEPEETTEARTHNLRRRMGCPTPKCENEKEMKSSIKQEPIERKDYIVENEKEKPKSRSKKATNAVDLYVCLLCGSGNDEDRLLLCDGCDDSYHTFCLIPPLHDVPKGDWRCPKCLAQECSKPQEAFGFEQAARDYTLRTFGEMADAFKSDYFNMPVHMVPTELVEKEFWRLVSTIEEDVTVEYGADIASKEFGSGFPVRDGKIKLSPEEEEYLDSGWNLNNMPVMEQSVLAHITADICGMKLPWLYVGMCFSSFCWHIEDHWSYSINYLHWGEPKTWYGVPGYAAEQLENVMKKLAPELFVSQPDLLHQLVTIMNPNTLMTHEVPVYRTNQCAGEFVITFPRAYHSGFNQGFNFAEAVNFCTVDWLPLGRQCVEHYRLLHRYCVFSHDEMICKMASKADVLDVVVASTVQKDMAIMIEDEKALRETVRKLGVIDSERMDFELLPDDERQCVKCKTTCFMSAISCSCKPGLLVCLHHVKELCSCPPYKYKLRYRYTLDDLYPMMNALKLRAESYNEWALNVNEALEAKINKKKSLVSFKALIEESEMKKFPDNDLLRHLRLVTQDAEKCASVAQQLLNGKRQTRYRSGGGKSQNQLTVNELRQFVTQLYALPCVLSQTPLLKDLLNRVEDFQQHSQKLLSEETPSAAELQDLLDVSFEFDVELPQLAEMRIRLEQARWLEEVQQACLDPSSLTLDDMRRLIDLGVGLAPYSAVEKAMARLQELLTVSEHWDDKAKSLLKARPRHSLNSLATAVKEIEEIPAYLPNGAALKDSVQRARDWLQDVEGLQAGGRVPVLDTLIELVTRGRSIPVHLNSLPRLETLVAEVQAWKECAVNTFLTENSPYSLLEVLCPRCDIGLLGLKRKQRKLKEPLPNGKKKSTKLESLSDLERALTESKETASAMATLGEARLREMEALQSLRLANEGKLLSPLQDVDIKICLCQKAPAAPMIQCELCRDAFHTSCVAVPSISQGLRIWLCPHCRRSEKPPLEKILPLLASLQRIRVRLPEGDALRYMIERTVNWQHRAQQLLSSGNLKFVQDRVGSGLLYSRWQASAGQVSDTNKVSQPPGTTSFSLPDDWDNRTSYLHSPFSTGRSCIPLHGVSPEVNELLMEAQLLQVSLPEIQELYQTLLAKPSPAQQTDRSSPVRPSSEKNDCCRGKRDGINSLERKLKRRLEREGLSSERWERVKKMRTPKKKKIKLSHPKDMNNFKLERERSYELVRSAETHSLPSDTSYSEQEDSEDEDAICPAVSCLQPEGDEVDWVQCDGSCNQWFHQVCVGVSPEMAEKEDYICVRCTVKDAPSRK
- Measurement notes: High-content immunofluorescence (IF) assay, overexpressed full-length FLAG-tagged KDM in HeLa cells
- Type: cell-based
- Set-up: transiently transfecting the full-length FLAG-tagged demethylase (WT) into cells; expressed in transfected cells; host or cells: HeLa
- Test settings: HeLa cells overexpressing WT KDM5B, H3K4me3 mark, 24 h; read-out: KDM5B, in cells, EC50 by IF assay (head: IC50)
pEC50: −log10 of the molar value.
Measured pEC50 values are reported for all entries that follow.
Observed property: pEC50

1. O=C(O)c1ccc(O)c2ncccc12 : 4.21
2. CCOC(=O)c1ccnc(CNCC(=O)N(CC)CCN(C)C)c1 : 6.15
3. CCN(CCN(C)C)C(=O)CNCc1cc(C(=O)O)ccn1 : 4.70
4. Clc1ccc(N/N=C(\c2ccccc2)c2ccccn2)nc1 : 5.52
